- Tested on: HepG2
- assay-text: GSK_TCMDC: Percent inhibition of human HepG2 cell line. Test compounds present at 10uM.
- Type: functional
A collection of compounds and their measured Inhibition
Please state the figure in %; there is no need to write the unit.

As a guide, the following entries are already answered.
# compound, Inhibition, %
records = [
    ("CCc1cn(C)c2c(N3CCCC3=O)cc(C(=O)N[C@@H](Cc3ccccc3)[C@H](O)CNC(C)(C)CCCC(C)C)cc12", 15),
    ("COc1ccc2ncc(Cl)c(CCN3CC[C@@H](CNCc4cc5c(cn4)OCS5)C3)c2n1.Cl", 22),
    ("Cl.Clc1ccc(OC2CCC(Cn3ccnc3)(c3ccc(Cl)cc3Cl)CC2)c(Cl)c1 (stereo unspecified)", 4),
    ("Fc1ccc2[nH]c(-c3ccc(-c4cccc(CN5CCC(CCN6CCCCC6)CC5)c4)cc3)nc2c1.O=C(O)C(F)(F)F", 96),
    ("O=C(Nc1ccc(OC2CCN(Cc3ccco3)CC2)c(Cl)c1)c1ccc2ncccc2c1.O=C(O)C(F)(F)F", 0),
    ("CCCC(=O)c1cnc2c(Oc3cc(Cl)ncn3)cccc2c1Nc1ccccc1C", 6),
]

Sample "O=C(O)C(F)(F)F.c1ccc(CN2CCC(NCc3ccccc3-c3ccc(CNCc4ccc5c(c4)OCO5)cc3)CC2)cc1" ; Inhibition observed: 26

Sample CC(CN(C)C)C(=O)Nc1ccc(-c2cccc(-c3nc4ccccc4[nH]3)c2)cc1 (stereo unspecified) ; Inhibition observed: 68

Sample "COc1ccc(Nc2nc(NCc3ccco3)c3ccccc3n2)cc1.Cl" ; Inhibition observed: 38
